Test system: broad leaf weeds (Lindernia pyxidaria and Monochoria vaginalis)
Experiment: Test Example 1: herbicidal effect test by treatment of rice paddy soil (immediately after seeding)
Type: in vivo
Conditions: Monochoria vaginalis, 120 g/10a active ingredient, dry weight vs untreated area, 14 days after treatment
Assign Herbicidal rate (%) Monochoria vaginalis to each entry below.
One number for each entry, in %.

Your task in this section: give Herbicidal rate (%) Monochoria vaginalis for each listed record.
1. COCC(C)n1oc(=O)c(Cc2ccccc2N(C(=O)OC)S(=O)(=O)C(F)(F)F)c1C (stereo not drawn)
2. CCC(C)n1oc(=O)c(Cc2ccccc2N(C(=O)c2ccccc2)S(=O)(=O)C(F)(F)F)c1C (stereo not drawn)
3. Cc1c(Cc2ccccc2NS(=O)(=O)C(F)(F)F)c(=O)on1C(C)c1ccsc1 (stereo not drawn)
4. Cc1c(Cc2ccccc2N(S(=O)(=O)C(F)(F)F)S(=O)(=O)C(F)(F)F)c(=O)on1C(C)c1cccc(Cl)c1 (stereo not drawn)
5. COCC(C)n1oc(=O)c(Cc2ccccc2N(S(C)(=O)=O)S(=O)(=O)C(F)(F)F)c1C (stereo not drawn)

Reply:
1. 90
2. 90
3. 80
4. 100
5. 90

Hi there! I need Herbicidal rate (%) Monochoria vaginalis for each item below, if you can.
1. CSCCn1oc(=O)c(Cc2ccccc2N(C(C)=O)S(=O)(=O)C(F)(F)F)c1C
2. CCC(CC)n1oc(=O)c(Cc2ccccc2N(C(=O)C2CC2)S(=O)(=O)C(F)(F)F)c1C

Reply:
1. 90
2. 90

====

System: Chenopodium album
Experiment: Test Example 3: herbicidal effect test by treatment of dry field farming soil (one day after seeding)
Format: in vivo
Details: 120 g/10a active ingredient, evaluated 14 days after treatment
assay_readout: herbicidal rate, Chenopodium album

Please review the entries below; each comes with its answer.
[[record]]
molecule = "Cc1c(Cc2ccccc2NS(=O)(=O)C(F)(F)F)c(=O)on1CC1CC1"
test_value = "0%"

[[record]]
molecule = "CCC(CC)n1oc(=O)c(Cc2ccccc2N(C(=O)C2CC2)S(=O)(=O)C(F)(F)F)c1C"
test_value = "90%"

[[record]]
molecule = "C=CC(C)n1oc(=O)c(Cc2ccccc2NS(=O)(=O)C(F)(F)F)c1C (stereo not drawn)"
test_value = "60%"

[[record]]
molecule = "CCn1oc(=O)c(Cc2ccccc2N(S(=O)(=O)C(F)(F)F)S(=O)(=O)C(F)(F)F)c1C"
test_value = "0%"

[[record]]
molecule = "CCOC(=O)N(c1ccccc1Cc1c(C)n(C(C)CC)oc1=O)S(=O)(=O)C(F)(F)F (stereo not drawn)"
test_value = "90%"


Could I get herbicidal rate, Chenopodium album for every one of these entries?
1. COC(=O)N(c1ccccc1Cc1c(C)n(C(C)C)oc1=O)S(=O)(=O)C(F)(F)F
2. CCC(C)n1oc(=O)c(Cc2ccccc2N(C(=O)OCC2CCCO2)S(=O)(=O)C(F)(F)F)c1C (stereo not drawn)
3. C=CCOC(=O)N(c1ccccc1Cc1c(C)n(CCSC)oc1=O)S(=O)(=O)C(F)(F)F
4. CCC(C)n1oc(=O)c(Cc2ccccc2N(S(=O)(=O)CC)S(=O)(=O)C(F)(F)F)c1C (stereo not drawn)
5. CCC(CC)Cn1oc(=O)c(Cc2ccccc2NS(=O)(=O)C(F)(F)F)c1C
6. Cc1c(Cc2ccccc2N(C(=O)OCC(C)C)S(=O)(=O)C(F)(F)F)c(=O)on1C
7. Cc1c(Cc2ccccc2NS(=O)(=O)C(F)(F)F)c(=O)on1C(C)c1ccccc1 (stereo not drawn)
8. COCCn1oc(=O)c(Cc2ccccc2NS(=O)(=O)C(F)(F)F)c1C

Reply:
1: 40%; 2: 90%; 3: 90%; 4: 90%; 5: 100%; 6: 40%; 7: 40%; 8: 80%

====

Test system: Echinochloa crus-galli
Assay: Test Example 2: herbicidal effect test by treatment during growing period in paddy rice cultivation (seven days after seeding)
Assay type: in vivo
Settings: 120 g/10a active ingredient, assessed 14 days after treatment, dry weight vs untreated area
Hi there, I'd appreciate the recorded Herbicidal rate (%) Echinochloa crus-galli for every entry that follows.
One number for each entry, in %.

[[record]]
compound = "Cc1c(Cc2ccccc2N(S(=O)(=O)C(F)(F)F)S(=O)(=O)C(F)(F)F)c(=O)on1Cc1ccc(C(C)(C)C)cc1 [Compound 1-1019]"
measurement_unit = "%"
test_value = 0

[[record]]
compound = "CCC(C)n1oc(=O)c(Cc2ccccc2N(S(C)(=O)=O)S(=O)(=O)C(F)(F)F)c1C (stereo not drawn) [Compound 1-890]"
measurement_unit = "%"
test_value = 90

[[record]]
compound = "CCOC(=O)N(c1ccccc1Cc1c(C)n(CC(C)CC)oc1=O)S(=O)(=O)C(F)(F)F (stereo not drawn) [Compound 1-611]"
measurement_unit = "%"
test_value = 100

[[record]]
compound = "Cc1c(Cc2ccccc2N(C(=O)OCC(C)C)S(=O)(=O)C(F)(F)F)c(=O)on1Cc1ccccc1 [Compound 1-677]"
measurement_unit = "%"
test_value = 70


Give Herbicidal rate (%) Echinochloa crus-galli for each of the items listed below.
1. Cc1c(Cc2ccccc2N(S(C)(=O)=O)S(=O)(=O)C(F)(F)F)c(=O)on1C(C)(C)C [Compound 1-889]
2. COCCOC(=O)N(c1ccccc1Cc1c(C)n(C(C)c2ccccc2)oc1=O)S(=O)(=O)C(F)(F)F (stereo not drawn) [Compound 1-736]

Reply:
90
90

====

Consider the following compounds; for each one, report its Herbicidal rate (%) Monochoria vaginalis.
Tested on: broad leaf weeds (Lindernia pyxidaria and Monochoria vaginalis)
Assay: Test Example 1: herbicidal effect test by treatment of rice paddy soil (immediately after seeding)
Format: in vivo
Conditions: Monochoria vaginalis, 120 g/10a active ingredient, dry weight vs untreated area, 14 days after treatment
Answers are plain numbers, in %.

Example entries begin here.
[[record]]
compound = "Cc1c(Cc2ccccc2N(C(=O)OC(C)C)S(=O)(=O)C(F)(F)F)c(=O)on1C(C)(C)C [Compound 1-641]"
test_system = "broad leaf weeds (Lindernia pyxidaria and Monochoria vaginalis)"
measurement_unit = "%"
test_value = 90

[[record]]
compound = "Cc1c(Cc2ccccc2N(S(=O)(=O)C(F)(F)F)S(=O)(=O)C(F)(F)F)c(=O)on1Cc1ccc(F)cc1F [Compound 1-1026]"
test_system = "broad leaf weeds (Lindernia pyxidaria and Monochoria vaginalis)"
measurement_unit = "%"
test_value = 100

[[record]]
compound = "Cc1c(Cc2ccccc2NS(=O)(=O)C(F)(F)F)c(=O)on1CCc1ccccc1 [Compound 1-216]"
test_system = "broad leaf weeds (Lindernia pyxidaria and Monochoria vaginalis)"
measurement_unit = "%"
test_value = 100

[[record]]
compound = "CCC(C)n1oc(=O)c(Cc2ccccc2N(C(=O)OCC(C)C)S(=O)(=O)C(F)(F)F)c1C (centres unmarked) [Compound 1-669]"
test_system = "broad leaf weeds (Lindernia pyxidaria and Monochoria vaginalis)"
measurement_unit = "%"
test_value = 90

[[record]]
compound = "Cc1c(Cc2ccccc2NS(=O)(=O)C(F)(F)F)c(=O)on1C(C)Cc1ccccc1 (centres unmarked) [Compound 1-218]"
test_system = "broad leaf weeds (Lindernia pyxidaria and Monochoria vaginalis)"
measurement_unit = "%"
test_value = 90


Below are some compounds; for each one, tell me its Herbicidal rate (%) Monochoria vaginalis.
1. Cc1c(Cc2ccccc2N(C(=O)CC(C)C)S(=O)(=O)C(F)(F)F)c(=O)on1C(C)(C)C [Compound 1-351]
2. CCOC(=O)N(c1ccccc1Cc1c(C)n(CC(C)(C)C)oc1=O)S(=O)(=O)C(F)(F)F [Compound 1-609]
3. C=CCOC(=O)N(c1ccccc1Cc1c(C)n(C(C)COC)oc1=O)S(=O)(=O)C(F)(F)F (centres unmarked) [Compound 1-708]
4. Cc1c(Cc2ccccc2N(S(=O)(=O)C(F)(F)F)S(=O)(=O)C(F)(F)F)c(=O)on1C(C)c1ccc(F)cc1 (centres unmarked) [Compound 1-1031]
5. CCC(C)n1oc(=O)c(Cc2ccccc2N(C(=O)CC(C)C)S(=O)(=O)C(F)(F)F)c1C (centres unmarked) [Compound 1-352]
6. Cc1c(Cc2ccccc2N(S(=O)(=O)C(F)(F)F)S(=O)(=O)C(F)(F)F)c(=O)on1Cc1ccc(F)c(F)c1 [Compound 1-1027]
7. Cc1ccc(Cn2oc(=O)c(Cc3ccccc3N(S(=O)(=O)C(F)(F)F)S(=O)(=O)C(F)(F)F)c2C)cc1 [Compound 1-1018]

Reply:
90
90
90
100
90
100
90

Hey, quick one: what's Herbicidal rate (%) Monochoria vaginalis for each of these?
1. CCN(CC)C(=O)n1oc(=O)c(Cc2ccccc2N(C(=O)OCC(C)C)S(=O)(=O)C(F)(F)F)c1C [Compound 1-679]
2. CCCCn1oc(=O)c(Cc2ccccc2N(S(=O)(=O)C(F)(F)F)S(=O)(=O)C(F)(F)F)c1C [Compound 1-969]

Reply:
50
80

====

Can you tell me herbicidal rate, Chenopodium album for the items I'm about to list?
System: Chenopodium album
Assay: Test Example 3: herbicidal effect test by treatment of dry field farming soil (one day after seeding)
Type: in vivo
Conditions: 120 g/10a active ingredient, evaluated 14 days after treatment
Please state the number and follow it with the unit.

Solved entries (count: 3):
[[record]]
compound = "CCC(CC)n1oc(=O)c(Cc2ccccc2N(C(=O)CC(C)C)S(=O)(=O)C(F)(F)F)c1C [Compound 1-353]"
test_value = "90%"

[[record]]
compound = "Cc1c(Cc2ccccc2N(S(=O)(=O)C(F)(F)F)S(=O)(=O)C(F)(F)F)c(=O)on1C(C)C [Compound 1-962]"
test_value = "70%"

[[record]]
compound = "C=CCOC(=O)N(c1ccccc1Cc1c(C)n(C(C)COC)oc1=O)S(=O)(=O)C(F)(F)F (stereo not shown) [Compound 1-708]"
test_value = "90%"


Attention now turns to another entry.
Query: Report herbicidal rate, Chenopodium album for CCC(C)n1oc(=O)c(Cc2ccccc2N(C(=O)OCCOC)S(=O)(=O)C(F)(F)F)c1C (stereo not shown) [Compound 1-731] please.
Reply: 90%
